B1: Double-stranded RNA-binding protein Staufen homolog 1, residues 183 to 249; numbered along this chain, O95793 (parent)
chain: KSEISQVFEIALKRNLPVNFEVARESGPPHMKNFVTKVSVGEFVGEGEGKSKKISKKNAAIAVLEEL

- Variants of: B1
- assayRemarks: abundance fitness (aPCA) (normalised: wild type 0, dead -1); higher = more abundant; growth selection in yeast, the domain comes from the species named
- conditionParameters: Homo sapiens
Catalogue of abundance fitness readings, one per entry.
propertyMeasured: abundance fitness

{"columns": ["mutantId", "endpointValue"],
 "data": [
  ["A60W", -1.02],
  ["P17R", -0.025],
  ["A60Y", -0.431],
  ["A62C", -0.223],
  ["T36Y", -0.449],
  ["G47K", -0.81],
  ["E42T", -0.048],
  ["A11C", -0.825],
  ["T36G", -0.664],
  ["L16W", -0.063],
  ["A59D", -0.718],
  ["K53C", -0.284],
  ["S39Q", -0.034],
  ["G45E", -0.484],
  ["G27H", -0.326],
  ["V44H", -0.102],
  ["L16V", -0.176],
  ["L64A", -0.473],
  ["N19L", -0.069],
  ["L16A", -0.421],
  ["A60K", -0.714],
  ["S39K", -0.05],
  ["H30I", -0.288],
  ["A23L", 0.008],
  ["L16R", -0.587],
  ["Q6N", -0.494],
  ["R24E", -0.031],
  ["N58R", -0.105],
  ["A60T", -0.466],
  ["A62F", -0.787],
  ["I4M", -0.292],
  ["S26Q", -0.337],
  ["F20R", -0.569],
  ["A59N", -0.705],
  ["A11V", -0.892],
  ["S5F", -0.512],
  ["F20Q", -0.657],
  ["V18W", -0.861],
  ["V63Y", -0.906],
  ["S2C", -0.482],
  ["A62Y", -0.788],
  ["I4Y", -0.74],
  ["G49N", -0.748],
  ["H30K", 0.022],
  ["E42H", 0.014],
  ["S2T", -0.235]
]}
